Reference source: ChEMBL document CHEMBL2396592

Assay: Cytotoxicity against human RPTEC after 24 hrs by LDH assay
Type: cell-based
Details: RPTEC cells, read-out: TC50
Where a SMILES comes first, the peptide text is derived from it. Bridges are numbered along the chain shown (N, C = ends). [ ]: non-standard residue; d: D form. The star is where a group is joined. 2Naphthoyl = O=C(c1ccc2ccccc2c1)*; X14 = O=C(c1ccc(Oc2ccccc2)nc1)*; Dab = NCC[C@H](N)C(=O)O; Dap = NC[C@H](N)C(=O)O
Entries and their CC50 at 24 h
Reply with just the number (in µM).

INSERT INTO measurements (molecule, result_units, recorded_measurement) VALUES
  ('CC(C)C[C@@H]1NC(=O)[C@@H](Cc2ccccc2)NC(=O)[C@H](CCN)NC(=O)[C@@H](NC(=O)[C@H](CN)NC(=O)[C@@H](NC(=O)[C@H](CCN)NC(=O)c2ccc(Oc3ccccc3)nc2)[C@@H](C)O)CCNC(=O)[C@H]([C@@H](C)O)NC(=O)[C@H](CCN)NC(=O)[C@H](CCN)NC1=O (X14-[Dab]T[Dap][Dab][Dab][dF]L[Dab][Dab]T; lactam 4-C)', 'µM', 61);

# ---- query molecule ----
*Q* Consider the molecule CC(C)C[C@@H]1NC(=O)[C@@H](Cc2ccccc2)NC(=O)[C@H](CCN)NC(=O)[C@@H](NC(=O)[C@H](CN)NC(=O)[C@@H](NC(=O)[C@H](CCN)NC(=O)c2ccc3ccccc3c2)[C@@H](C)O)CCNC(=O)[C@H]([C@@H](C)O)NC(=O)[C@H](CCN)NC(=O)[C@H](CCN)NC1=O (2Naphthoyl-[Dab]T[Dap][Dab][Dab][dF]L[Dab][Dab]T; lactam 4-C) . State its measured CC50 at 24 h.
*A* 51
